Assay: Volume of distribution at steady state in Sprague-Dawley rat at 1 mg/kg, iv by LC-MS/MS analysis
Assay type: ADME, organism-based
Details: in vivo, read-out: Vdss
attribute-measured: Vd (L/kg)
Write it as a number; the unit L/kg goes unstated.

## Input Supply measured Vd of [2H]C([2H])([2H])N(C(=O)c1cc2cnc(Nc3ccc(N4CCNCC4)cn3)nc2n1C1CCCC1)C([2H])([2H])[2H] in your reply.
## Output 8.6

---

Assay: Clearance in rat microsomes
Settings: in vitro
attribute-measured: clearance (mL/min/kg)
Reply numerically in mL/min/kg, unit not repeated.

item-smiles	clearance (mL/min/kg)
CCN1CCN(Cc2ccc(Nc3ncc(F)c(-c4cc(F)c5nc(C)n(C(C)C)c5c4)n3)nc2)CC1	62.9
[2H]C([2H])([2H])C([2H])([2H])N1CCN(Cc2ccc(Nc3ncc(F)c(-c4cc(F)c5nc(C)n(C(C)C)c5c4)n3)nc2)CC1	52.8
[2H]C([2H])([2H])C([2H])([2H])N1C([2H])([2H])C([2H])([2H])N(Cc2ccc(Nc3ncc(F)c(-c4cc(F)c5nc(C)n(C(C)C)c5c4)n3)nc2)C([2H])([2H])C1([2H])[2H]	43.3

## Input // Input: [2H]c1nc(Nc2ncc(F)c(-c3cc(F)c4nc(C)n(C(C)C)c4c3)n2)c([2H])c([2H])c1CN1CCN(C([2H])([2H])C([2H])([2H])[2H])CC1 . Output its clearance only.
## Output 52.7

---

Experiment: Metabolic stability in rat microsomes assessed as parent compound remaining after 15 mins
Format: ADME, Microsome
Details: read-out: Stability
attribute-measured: remaining at 0.25 h (%)
Express it in %; write the number only.

Before answering, review these 3 worked examples.
item-smiles	attribute-measured	numeric-result
[2H]c1nc(Nc2ncc(F)c(-c3cc(F)c4nc(C)n(C(C)C)c4c3)n2)c([2H])c([2H])c1CN1CCN(C([2H])([2H])C([2H])([2H])[2H])CC1	remaining at 0.25 h	83
[2H]C([2H])([2H])C([2H])([2H])N1C([2H])([2H])C([2H])([2H])N(Cc2ccc(Nc3ncc(F)c(-c4cc(F)c5nc(C)n(C(C)C)c5c4)n3)nc2)C([2H])([2H])C1([2H])[2H]	remaining at 0.25 h	86
CCN1CCN(Cc2ccc(Nc3ncc(F)c(-c4cc(F)c5nc(C)n(C(C)C)c5c4)n3)nc2)CC1	remaining at 0.25 h	81

## Input Provide remaining at 0.25 h value for the following compound: [2H]C([2H])([2H])C([2H])([2H])N1CCN(Cc2ccc(Nc3ncc(F)c(-c4cc(F)c5nc(C)n(C(C)C)c5c4)n3)nc2)CC1
## Output 83.4

---

We begin with a simple list: items and their reported Tmax.
Experiment: Tmax in Sprague-Dawley rat at 5 mg/kg, po by LC-MS/MS analysis
Format: ADME, organism-based
Conditions: in vivo
Write it as a number; the unit h goes unstated.

> print(dat)
                                item.smiles  attribute.measured  numeric.result
1  CN(C)C(=O)c1cc2cnc(Nc3ccc(N4CCNCC4)cn3)nc2n1C1CCCC1                Tmax             1.5

Continue with the compound presented below.
## Input Please supply the value of reported Tmax for the item [2H]C([2H])([2H])N(C(=O)c1cc2cnc(Nc3ccc(N4CCNCC4)cn3)nc2n1C1CCCC1)C([2H])([2H])[2H]
## Output 2

Data provenance: ChEMBL document CHEMBL4346699
